measurement_notes: HT1080 cell viability loss – fluorescence readout (AID 620);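 also: cells exposed to compound overnight then 4 h with Alamar Blue; 0% = vehicle DMSO and 100% = killing control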
test_conditions: at 10 µM, active compounds read high
The campaign covered roughly 87,000 compounds. About 360 (0.41%) were called active. This is one part of a sample in which actives are shown more often than they occur.

compound	cytotoxicity, %
CCS(=O)(=O)n1nc(-c2ccc(Cl)cc2)nc1N	0.1
CC(CCc1ccccc1)NC(=O)CSc1nnnn1C (stereo unspecified)	9.7
Cc1occc1-c1nnc(SCC(=O)c2ccc(F)cc2)n1Cc1ccco1	-0.9
Cc1onc(-c2ccccc2)c1C(=O)Nc1cccc(C#N)c1	-1.8
CCCCOc1ccc(S(=O)(=O)Nc2cc(OC)ccc2OC)cc1	4.8
Nc1ccc(C(=O)N2CCCC2)cc1	13
CC(=O)OC(Cn1ccnc1)c1ccccc1 (stereo unspecified)	7.8
Cn1c2ccccc2c2cc(C(=O)O)ccc21	6.9
CCOc1ccc(NC(=O)CSc2nnc(C)n2CC2CCCO2)cc1 (stereo unspecified)	-2.7
CCC(c1nnnn1C1CCCC1)N1CCN(c2ccccc2F)CC1 (stereo unspecified)	-20.4
Cc1ccc(-c2csc3ncnc(NCCN4CCOCC4)c23)cc1	-10.9
c1ccc(OCCOCCN2CCOCC2)cc1	-2.8
CCc1ccc2[nH]cc(C(=O)N3CCCCCC3)c(=O)c2c1	-11
COC(=O)CNC(=O)[C@@]1(C)C=C[C@@H](Cc2ccccc2)N1C(=O)OC	89.9
COc1ccc(CC(=O)N2CCN(C(=O)c3ccco3)CC2)cc1	4.7
CCN1C(=C2C(=O)c3ccccc3C2=O)C=Cc2ccccc21	12.1
COc1nc(NCc2ccco2)nc(N2CCC(C)CC2)n1	-3.4
COC(=O)c1ccccc1NC1=C/C(=N\S(=O)(=O)c2cccs2)c2ccccc2C1=O	-53
Cc1ccc(NC2=C/C(=N\S(=O)(=O)c3cccs3)c3ccccc3C2=O)c(C)c1	61.6
Cn1c(-c2sc(=S)n(-c3ccccc3)c2N)nc2ccccc21	-7.2
COC(=O)CNC(=O)[C@@]1(C)C=C[C@@H](Cc2ccccc2)N1C(C)=O	-25
Cc1nc2ccc(NC(=O)Cc3ccsc3)cc2s1	-7.3
CSc1nc(-c2ccc(Cl)cc2)nn1S(=O)(=O)c1ccc(Cl)cc1	-13
O=C(NCc1csc(-c2ccccc2)n1)c1ccco1	-1.4
COc1ccc2[nH]cc(C(=O)N3CCCCC3)c(=O)c2c1	-0.4
COc1cc(C)nc(N2CCCC(C(=O)NC3CCC(C)CC3)C2)n1 (stereo unspecified)	-9.4
Cn1nc(-c2ccc(Cl)cc2)nc2c(=O)n(C)c(=O)nc1-2	51
CCCNC(=O)C1CN(S(=O)(=O)c2ccccc2)CCN1S(=O)(=O)c1ccccc1 (stereo unspecified)	3.1
CNC(=O)[C@@]1(C)C=C[C@@H](Cc2ccccc2)N1C(=O)OC	-1
COC(=O)c1ccccc1NC(=O)CSc1nc(-c2ccco2)cc(C(F)(F)F)n1	52.3
COC(=O)C(C(C)=O)C1=C/C(=N\S(=O)(=O)c2ccc(C)cc2)c2ccccc2C1=O (stereo unspecified)	-13
Cn1cc(S(=O)(=O)NCc2cccs2)c(=O)n(C)c1=O	0.5
O=C(c1cccs1)N(Cc1ccco1)Cc1cc2ccccc2[nH]c1=O	-4.8
Cc1ccc(-c2noc(-c3ccccc3C(=O)N3CCOCC3)n2)cc1	-2.2
COc1cccc2sc(Nc3nnc(-c4ccccc4Cl)o3)nc12	-3.2
Cc1ccc(S(=O)(=O)Nc2cccc3cccnc23)cc1	-3
Cc1ccc(NC(=O)CSc2nc(-c3ccco3)cc(C(F)(F)F)n2)cc1C	-8.6
COC(=O)C(Cc1cnc(Cl)s1)(C(=O)OC)c1ccc([N+](=O)[O-])cc1[N+](=O)[O-]	-2
O=c1c2cc(Br)ccc2nc2n1CCCCC2	-8.5
COc1ccccc1NC(=O)c1ccc(NS(C)(=O)=O)cc1	-6.8
COC(=O)c1ccc(C(=O)OC)c(NC(=O)CSc2nc(-c3ccco3)cc(C(F)(F)F)n2)c1	5.6
CCN1C(=O)/C(=C2\C=Cc3ccccc3N2CC)OC1=S	5.1
Nc1ccc(C(=O)n2c3ccccc3c3ccccc32)cc1	52.6
O=C1CC(c2ccccc2)CC(O)=C1C=NCCCO (stereo unspecified)	4.4
Cc1cccc(C)c1NC(=O)CSc1nc(-c2ccco2)cc(C(F)(F)F)n1	3.3
Cc1ccccc1NS(=O)(=O)c1ccc(NC(=O)c2ccco2)cc1	2.4
